- systemName: UniProt:P30405
- Sequence (P30405 30-207): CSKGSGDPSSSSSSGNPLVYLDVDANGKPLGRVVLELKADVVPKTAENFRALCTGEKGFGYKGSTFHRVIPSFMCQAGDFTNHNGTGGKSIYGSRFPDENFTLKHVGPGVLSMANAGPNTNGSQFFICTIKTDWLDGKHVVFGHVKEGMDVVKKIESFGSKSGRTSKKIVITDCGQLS
- experiment: Fluorescence titration: interaction with Cyclophilin D
measurementType: Kd (µM)

1: CC1(C)CC(=O)C=C(N)C1
2: CC(C)[C@H](NC(=O)OC(C)(C)C)C(=O)OC1=CC(=O)CC(C)(C)C1
Decide: 1 or 2 , by lowest recorded Kd. // caller expects the label of the chosen entry
1

P: COC(=O)[C@@H](NC1=CC(=O)CC(C)(C)C1)C(C)C
Q: CC(C)[C@H](NC(=O)OCc1ccccc1)C(=O)OC1=CC(=O)C(C)C(C)(C)C1 (stereo partly shown)
Field: entry with larger Kd (options P / Q ). State the label of the item chosen.
Q
